- System: wild-type HTT
- experiment-notes: Wild-type HTT assay in lymphoblastoid cells (LBC), Western blot
- Type: cell-based, human
- cond: 3 days compound treatment, read-out: LBC IC20 (nM) wtHTT
assay-endpoint: IC20

>>> endpoint_value("COCc1ccc(CN[C@@H]2CCCc3c2[nH]c2ccc(Br)cc32)cc1 [Compound 27]")
"> 1000 nM"
>>> endpoint_value("OCc1ccc(CN[C@@H]2CCCc3c2[nH]c2ccc(Br)cc32)cc1 [Compound 2]")
"> 250 nM"
>>> endpoint_value("C[C@@H](N[C@@H]1CCCc2c1[nH]c1ccc(Br)cc21)c1ccccc1 (single isomer, unassigned) [Compound 13]")
"> 1000 nM"
>>> endpoint_value("Oc1ccc(CN[C@@H]2CCCc3c2[nH]c2ccc(Br)cc32)cc1 [Compound 60]")
"> 1000 nM"
>>> endpoint_value("COC(C)(C)c1ccc(CN[C@@H]2CCCc3c2[nH]c2ccc(Br)cc32)cc1 [Compound 48]")
"> 500 nM"
>>> endpoint_value("OCc1ccc(CN[C@@H]2CCCc3c2[nH]c2ccc(Br)cc32)s1 [Compound 36]")
"> 1000 nM"
>>> endpoint_value("C#Cc1ccc2[nH]c3c(c2c1)CCC[C@H]3NCc1ccccc1 [Compound 5]")
"> 1000 nM"
>>> endpoint_value("OCc1ccc(CN[C@@H]2CCCc3c2[nH]c2ccc(Br)nc32)cc1 [Compound 65]")
"> 1000 nM"
>>> endpoint_value("Brc1ccc2[nH]c3c(c2c1)CCC[C@H]3NCc1cccc2ccccc12 [Compound 19]")
"> 1000 nM"
>>> endpoint_value("Nc1ccc(CN[C@@H]2CCCc3c2[nH]c2ccc(Br)cc32)cc1 [Compound 21]")
"> 1000 nM"
>>> endpoint_value("COCC(N[C@@H]1CCCc2c1[nH]c1ccc(Br)cc21)c1ccc(C(C)(C)O)cc1 (single isomer, unassigned) [Compound 53]")
"> 500 nM"
>>> endpoint_value("COC(=O)c1cccc(CN[C@@H]2CCCc3c2[nH]c2ccc(Br)cc32)c1 (single isomer, unassigned) [Compound 59]")
"> 1000 nM"
>>> endpoint_value("COc1cccc(CN[C@@H]2CCCc3c2[nH]c2ccc(Br)cc32)c1 [Compound 24]")
"> 1000 nM"
>>> endpoint_value("OB1OCc2cc(CN[C@@H]3CCCc4c3[nH]c3ccc(Br)cc43)ccc21 [Compound 37]")
"> 1000 nM"
>>> endpoint_value("C=Cc1ccc2[nH]c3c(c2c1)CCC[C@H]3NCc1ccccc1 [Compound 45]")
"> 1000 nM"
